Biological target: HEG1–KRIT1 interaction (EGFP‐KRIT1 FERM domain binding to HEG1 cytoplasmic tail on beads) (Homo sapiens)
Sequence (O00522 417-736): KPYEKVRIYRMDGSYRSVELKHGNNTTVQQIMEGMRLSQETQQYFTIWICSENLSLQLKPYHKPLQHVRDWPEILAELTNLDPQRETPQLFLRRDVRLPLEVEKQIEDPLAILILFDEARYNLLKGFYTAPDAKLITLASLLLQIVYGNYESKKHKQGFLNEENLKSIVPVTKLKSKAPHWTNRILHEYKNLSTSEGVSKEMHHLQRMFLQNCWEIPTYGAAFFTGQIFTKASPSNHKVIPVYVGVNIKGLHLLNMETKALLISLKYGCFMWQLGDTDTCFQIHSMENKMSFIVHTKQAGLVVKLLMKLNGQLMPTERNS
Assay: Flow cytometry bead assay for the HEG1–KRIT1 FERM domain interaction
Conditions: IC50, competition, 70 nM EGFP‐KRIT1 FERM domain, 150 nM HEG1 on the beads
experimental readout: IC50

Form field: reported IC50 of CC(NC(=O)c1ccccc1/N=C/c1c(O)ccc2ccccc12)c1ccccc1 (stereo not shown)
~10 µM
